test system: H. polygyrus; test: In vivo efficacy study in H. polygyrus mouse model; parameters: species or system NMRI mice infected with H. polygyrus; conditions: single oral dose 200 mg/kg, vs untreated control mice
readout_name: % Worm burden reduction (%)
Output spec: scalar in %, unitless text.

- compound: "CCn1c(C(C)c2ccc(CC(C)C)cc2)nc2ccccc21 (stereo not shown) [STK951902]"
  % Worm burden reduction (%): 41.1
- compound: "Cc1ccccc1OCCCCn1cnc2ccccc21 [Compound 7732524]"
  % Worm burden reduction (%): 24.6
- compound: "CC(C)Cc1ccc(C(C)c2nc3ccccc3n2C)cc1 (stereo not shown) [NPD8790]"
  % Worm burden reduction (%): 23.0

Record request: % Worm burden reduction value, item Clc1ccc(SCCCCn2cnc3ccccc32)cc1 [Compound 7925515]
19.4

---

biological target: C. elegans (N2) complex I (NADH:ubiquinone oxidoreductase) (Caenorhabditis elegans, UniProt P24887+Q93873+Q94360); test: biochemical; assay type: biochemical; settings: 100 μM of NPD compound; C. elegans mitochondria; mean of four biological replicates
Sequence (Q94360 17-199): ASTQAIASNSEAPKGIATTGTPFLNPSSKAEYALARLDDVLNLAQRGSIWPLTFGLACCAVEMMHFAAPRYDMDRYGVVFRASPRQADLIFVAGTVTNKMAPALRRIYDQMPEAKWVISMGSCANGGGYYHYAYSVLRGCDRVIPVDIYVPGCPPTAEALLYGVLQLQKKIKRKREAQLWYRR
Sequence (P24887 whole entry): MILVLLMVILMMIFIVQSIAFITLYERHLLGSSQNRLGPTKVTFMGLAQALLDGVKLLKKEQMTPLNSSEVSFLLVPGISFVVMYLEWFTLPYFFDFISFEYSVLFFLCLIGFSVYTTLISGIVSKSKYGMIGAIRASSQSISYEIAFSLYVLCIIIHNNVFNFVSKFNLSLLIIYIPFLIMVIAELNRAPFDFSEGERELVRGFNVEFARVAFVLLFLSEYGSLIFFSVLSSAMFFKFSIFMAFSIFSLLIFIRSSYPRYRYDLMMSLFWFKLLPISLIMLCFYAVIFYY
Sequence (Q93873 31-482): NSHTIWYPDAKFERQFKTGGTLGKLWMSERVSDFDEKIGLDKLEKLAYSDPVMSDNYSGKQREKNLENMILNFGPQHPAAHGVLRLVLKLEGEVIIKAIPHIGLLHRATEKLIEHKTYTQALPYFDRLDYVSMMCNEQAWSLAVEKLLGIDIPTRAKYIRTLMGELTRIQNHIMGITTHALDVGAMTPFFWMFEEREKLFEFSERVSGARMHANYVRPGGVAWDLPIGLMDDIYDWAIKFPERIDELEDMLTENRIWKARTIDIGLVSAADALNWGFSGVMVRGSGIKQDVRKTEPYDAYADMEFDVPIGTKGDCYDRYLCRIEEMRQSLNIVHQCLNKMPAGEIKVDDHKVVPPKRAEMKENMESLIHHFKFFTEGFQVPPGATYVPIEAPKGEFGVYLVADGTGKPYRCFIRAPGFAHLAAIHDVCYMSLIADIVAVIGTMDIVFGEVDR
readout_name: Percent in vitro activity, Complex I (Mean) (%)
Output spec: scalar in %, unitless text.

The cases that follow already have their Percent in vitro activity, Complex I (Mean) on record.
- compound: "O=C(NCCc1ccc(Cl)cc1)c1ccccc1C(F)(F)F [Wact-11]"
  result_unit: "%"
  obs_value: 84.830
- compound: "COc1ccc(-c2cc(=Nc3ccc(C)cc3)c3ccccc3o2)cc1OC [NPD1450]"
  result_unit: "%"
  obs_value: 84.467
- compound: "O=C1OC(c2ccccc2)=NC1=CC=Cc1ccccc1 (mixture of isomers) [NPD8298]"
  result_unit: "%"
  obs_value: 79.898
- compound: "COc1ccc(N=c2cc(-c3ccc(OC)cc3)oc3ccc(O)cc23)cc1 [NPD8034]"
  result_unit: "%"
  obs_value: 99.295
- compound: "Cc1cc(O)c(C(=O)/C=C/c2ccc(C(C)C)cc2)c(=O)o1 [NPD6240]"
  result_unit: "%"
  obs_value: 102.091

Consider the record given below.
Record request: Percent in vitro activity, Complex I (Mean) value, item Cc1cc(O)c(C(=O)/C=C/c2ccccc2)c(=O)o1 [NPD8366]
102.657

---

Target: C. elegans complex II (succinate dehydrogenase) (Caenorhabditis elegans, UniProt O62215+P41956+Q09545)
Sequence (P41956 30-182): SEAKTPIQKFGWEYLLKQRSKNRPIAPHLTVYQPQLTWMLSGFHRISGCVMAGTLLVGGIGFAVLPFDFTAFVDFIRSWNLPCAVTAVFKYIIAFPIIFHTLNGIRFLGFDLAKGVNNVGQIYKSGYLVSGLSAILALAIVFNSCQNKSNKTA
Sequence (Q09545 22-298): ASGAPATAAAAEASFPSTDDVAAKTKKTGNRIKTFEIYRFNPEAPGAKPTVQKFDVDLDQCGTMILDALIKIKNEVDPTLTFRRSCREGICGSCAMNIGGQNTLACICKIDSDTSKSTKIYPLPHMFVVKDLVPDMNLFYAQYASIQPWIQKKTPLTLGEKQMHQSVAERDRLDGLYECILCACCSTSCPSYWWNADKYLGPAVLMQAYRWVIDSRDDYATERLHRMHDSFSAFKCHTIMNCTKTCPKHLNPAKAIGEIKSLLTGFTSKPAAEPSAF
Sequence (Q09508 32-646, further chain): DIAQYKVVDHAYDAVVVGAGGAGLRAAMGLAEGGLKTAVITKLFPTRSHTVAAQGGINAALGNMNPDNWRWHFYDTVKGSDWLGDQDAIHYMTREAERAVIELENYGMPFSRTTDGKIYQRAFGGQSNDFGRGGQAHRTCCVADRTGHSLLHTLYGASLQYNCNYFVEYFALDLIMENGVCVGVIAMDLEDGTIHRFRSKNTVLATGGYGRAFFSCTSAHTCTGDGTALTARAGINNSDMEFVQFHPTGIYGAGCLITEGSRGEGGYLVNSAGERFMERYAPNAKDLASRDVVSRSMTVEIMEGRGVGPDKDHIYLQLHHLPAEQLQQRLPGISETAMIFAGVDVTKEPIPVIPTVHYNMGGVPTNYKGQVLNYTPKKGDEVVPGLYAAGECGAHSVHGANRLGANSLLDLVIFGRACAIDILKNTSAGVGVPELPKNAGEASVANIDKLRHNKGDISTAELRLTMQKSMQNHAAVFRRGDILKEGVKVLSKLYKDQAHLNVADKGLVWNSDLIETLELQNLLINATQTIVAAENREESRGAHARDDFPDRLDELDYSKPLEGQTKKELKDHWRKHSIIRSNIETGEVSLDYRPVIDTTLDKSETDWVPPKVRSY
Sequence (O62215 31-145): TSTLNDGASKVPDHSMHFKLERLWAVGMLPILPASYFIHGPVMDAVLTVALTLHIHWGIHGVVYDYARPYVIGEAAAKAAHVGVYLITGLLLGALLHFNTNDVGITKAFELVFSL
Test: In vitro complex II activity assay, C. elegans mitochondria
Format: biochemical
Settings: 100 µM compound, relative to solvent control, mean (SEM); read-out: % Activity Complex II
Procedure: Mitochondria were isolated from the following free-living nematode strains: C. elegans—N2, CB3474, ECA882, ECA917, ECA1075, ECA1080; C. briggsae—AF16; P. pacificus—PS312; and P. hermaphrodita—B178. With the exception of the P. hermaphrodita strain B178, adult worms of each strain were grown in bulk through liquid culture to obtain mitochondria in sufficient quantities. […] Complex II (succinate dehydrogenase) activity was assessed using the DCIP-coupled method previously described in Burns et al.[24]. […]
readout_name: activity at 100 µM (%)
Output spec: scalar in %, unitless text.

- compound: "COc1cc2c(cc1OC)C(/C=C/c1ccc(N(C)C)cc1)=NCC2 [NPD6303]"
  activity at 100 µM, %: 101
- compound: "C=C(C)[C@H]1Cc2c(ccc3c2O[C@@H]2COc4cc(OC)c(OC)cc4[C@@H]2C3=O)O1 [Rotenone, reference compound]"
  activity at 100 µM, %: 106
- compound: "CCCCCC[C@H]1C(=O)O[C@H](C)[C@H](NC(=O)c2cccc(NC=O)c2O)C(=O)O[C@@H](C)[C@@H]1OC(=O)CC(C)C [Antimycin A, reference compound]"
  activity at 100 µM, %: 79.5
- compound: "CC(C)Cc1ccc(C(C)c2nc3ccccc3n2C)cc1 (stereo not drawn) [NPD8790]"
  activity at 100 µM, %: 99.7
- compound: "COc1cc2c(cc1OC)C(C(C)c1ccc(CC(C)C)cc1)=NCC2 (stereo not drawn) [NPD10504]"
  activity at 100 µM, %: 106

Record request: activity at 100 µM value, item COc1cc2c(cc1OC)C(c1ccc(-c3ccc(Cl)c(Cl)c3)o1)=NCC2 [NPD3577]
115
